# Test system: MDA-MB-468 cells
# ASSAY_PROCEDURE: CellTiter-Glo in vitro cell proliferation assay, Example 8
# Type: cell-based, Human
# CONDITION_LABEL: MDA-MB-468, TNBC; read-out: Mean IC50
Catalogue of IC50 values

- MOLECULE: "COc1ccc2c3c([nH]c2c1)C(CC(CC1=NCCc2c1[nH]c1cc(OC)ccc21)c1cc(O)c(OC)c(OC)c1)=NCC3 [compound 11]"
  IC50 / µM: 12.2
- MOLECULE: "COc1ccc2c3c([nH]c2c1)C(CC(CC1=NCCc2c1[nH]c1cc(OC)ccc21)c1cccc(-c2ccccc2)c1)=NCC3 [compound 18]"
  IC50 / µM: 48.7
- MOLECULE: "COc1ccc2c3c([nH]c2c1)C(CC(CC1=NCCc2c1[nH]c1cc(OC)ccc21)c1ccc(OC)c(O)c1Br)=NCC3 [compound 13]"
  IC50 / µM: 12.6
